tested on: Mus musculus; experiment: Anticonvulsant activity in mouse assessed as decrease in convulsion frequency at 150 mg/kg, ip administered 20 mins prior to picrotoxin challenge relative to control; assay type: functional; design: scale not given: the % may be the effect or the level left; settings: route intraperitoneal
Test readout: Activity
Please append the unit to your numeric answer.

Input line: Need Activity, item "CSc1nc2ccc(Cl)cc2c(=O)n1Cc1ccccc1"
Output line: 91%

Input line: Next compound up: "COc1cc2nc(SCC(=O)NNC(=S)Nc3ccccc3)n(Cc3ccccc3)c(=O)c2cc1OC"
Output line: 89%

# next compound below
Input line: Item under review: "O=C(CSc1nc2ccc(Cl)cc2c(=O)n1Cc1ccccc1)NNC(=S)NCc1ccccc1" . Reported Activity?
Output line: 39%
